- System: Pseudomonas aeruginosa
- TEST PROTOCOL: Antibacterial activity against Pseudomonas aeruginosa incubated for 24 hrs by two fold serial dilution method
- Type: functional
MEASURED ENDPOINT: MIC

Parameter requested: MIC. Apply to each item below.
1. CCN(CC)C(=O)Cn1cc(/C=C(/C(C)=O)n2cc([N+](=O)[O-])nc2C)c2ccc(Cl)cc21
2. CCN(CC)C(=O)Cn1cc(/C=C(/C(C)=O)n2cc([N+](=O)[O-])nc2C)c2ccccc21
3. C=CCn1cc(/C=C(/C(C)=O)n2cc([N+](=O)[O-])nc2C)c2ccccc21

RESULT:
["128 µg/mL", "16 µg/mL", "16 µg/mL"]

###

Field: MIC. Provide a value for each of the molecules that follow.
- System: Staphylococcus aureus
- TEST PROTOCOL: Antibacterial activity against Staphylococcus aureus ATCC 29213 incubated for 24 hrs by two fold serial dilution method
- Format: functional
- TEST CONDITIONS: ATCC 29213, 24 h
One number for each entry, in µg/mL.

Parameter requested: MIC. Apply to each item below.
1. CC(=O)/C(=C/c1cn(CC(=O)N2CCN(Cc3ccc(F)cc3)CC2)c2ccccc12)n1cc([N+](=O)[O-])nc1C
2. CCN(CC)C(=O)Cn1cc(/C=C(/C(C)=O)n2cc([N+](=O)[O-])nc2C)c2ccc(C)cc21

RESULT:
1: 8; 2: 16

###

Field: MIC. Provide a value for each of the compounds that follow.
- System: Escherichia coli
- TEST PROTOCOL: Antibacterial activity against Escherichia coli incubated for 24 hrs by two fold serial dilution method
- Assay type: functional
Answers are plain numbers, in µg/mL.

Use the examples below as a reference point.
COMPOUND: C=CCn1cc(/C=C(/C(C)=O)n2cc([N+](=O)[O-])nc2C)c2ccccc21
OBSERVED RESULT: 32
//
COMPOUND: CC(=O)/C(=C/c1cn(CC(=O)N2CCCC2)c2ccccc12)n1cc([N+](=O)[O-])nc1C
OBSERVED RESULT: 8

Parameter requested: MIC. Apply to each item below.
1. CC(=O)/C(=C/c1cn(CC(=O)N2CCN(Cc3ccc(F)cc3)CC2)c2ccccc12)n1cc([N+](=O)[O-])nc1C
2. CC(=O)/C(=C/c1cn(CC(=O)N2CCCCC2)c2ccccc12)n1cc([N+](=O)[O-])nc1C
3. CC(=O)/C(=C/c1cn(CC(=O)N2CCOCC2)c2ccccc12)n1cc([N+](=O)[O-])nc1C
4. CC(=O)Cn1cc(/C=C(/C(C)=O)n2cc([N+](=O)[O-])nc2C)c2ccccc21
5. NC1CCN(c2c(F)cc3c(=O)c(C(=O)O)cn(C4CC4)c3c2Cl)C1 (stereo not drawn)
6. CCN(CC)C(=O)Cn1cc(/C=C(/C(C)=O)n2cc([N+](=O)[O-])nc2C)c2ccc(C)cc21

RESULT:
1: 16; 2: 1; 3: 32; 4: 8; 5: 64; 6: 128

###

- TEST PROTOCOL: Cytotoxicity activity against human A549 cells assessed as cell viability at 2 to 64 ug/ml incubated for 24 hrs by MTT assay relative to control
- Assay type: cell-based
- TEST CONDITIONS: read-out: Activity
MEASURED ENDPOINT: viability at 24 h

COMPOUND: CC(=O)/C(=C/c1cn(CC(=O)N2CCCCC2)c2ccccc12)n1cc([N+](=O)[O-])nc1C
viability at 24 h: > 75%

Consider the record given below.
// recorded viability at 24 h for COc1cccc2c1C(=O)c1c(O)c3c(c(O)c1C2=O)C[C@@](O)(C(=O)CO)C[C@@H]3O[C@H]1C[C@H](N)[C@H](O)[C@H](C)O1 [DOXORUBICIN] : < 75%

###

- Test system: Enterococcus faecalis
- TEST PROTOCOL: Antibacterial activity against Enterococcus faecalis incubated for 24 hrs by two fold serial dilution method
- Format: functional
Field: MIC. Provide a value for each of the compounds that follow.
Numbers only, in µg/mL.

MOL: CC(=O)Cn1cc(/C=C(/C(C)=O)n2cc([N+](=O)[O-])nc2C)c2ccccc21
DISPLAY UNIT: µg/mL
MIC: 16
//
MOL: CC(=O)/C(=C/c1cn(CC(=O)N2CCN(Cc3ccc(F)cc3)CC2)c2cc(C)ccc12)n1cc([N+](=O)[O-])nc1C
DISPLAY UNIT: µg/mL
MIC: 64
//
MOL: CC(=O)/C(=C/c1cn(CC(=O)N2CCN(Cc3ccc(Cl)cc3Cl)CC2)c2ccccc12)n1cc([N+](=O)[O-])nc1C
DISPLAY UNIT: µg/mL
MIC: 128
//
MOL: CC(=O)/C(=C/c1cn(CC(=O)N2CCCCC2)c2cc(Cl)ccc12)n1cc([N+](=O)[O-])nc1C
DISPLAY UNIT: µg/mL
MIC: 4

Consider the record given below.
Form field, MIC with Enterococcus faecalis, item C=CCn1cc(/C=C(/C(C)=O)n2cc([N+](=O)[O-])nc2C)c2ccccc21 : 64

###

- System: Staphylococcus aureus
- TEST PROTOCOL: Antibacterial activity against Staphylococcus aureus ATCC 29213 incubated for 24 hrs by two fold serial dilution method
- Format: functional
- TEST CONDITIONS: ATCC 29213, 24 h
Field: MIC. Provide a value for each of the molecules that follow.
Record the result as number plus unit.

Use the examples below as a reference point.
MOL: CCN(CC)C(=O)Cn1cc(/C=C(/C(C)=O)n2cc([N+](=O)[O-])nc2C)c2ccc(Cl)cc21
MEASURED TARGET: Staphylococcus aureus
MIC: 512 µg/mL
--
MOL: CC(=O)/C(=C/c1cn(CC(=O)N2CCN(Cc3ccc(Cl)cc3Cl)CC2)c2ccccc12)n1cc([N+](=O)[O-])nc1C
MEASURED TARGET: Staphylococcus aureus
MIC: 256 µg/mL
--
MOL: CC(=O)/C(=C/c1cn(CC(=O)N2CCN(Cc3ccc(F)cc3)CC2)c2cc(Cl)ccc12)n1cc([N+](=O)[O-])nc1C
MEASURED TARGET: Staphylococcus aureus
MIC: 512 µg/mL
--
MOL: CC(=O)/C(=C/c1cn(CC(=O)N(C2CCCCC2)C2CCCCC2)c2ccccc12)n1cc([N+](=O)[O-])nc1C
MEASURED TARGET: Staphylococcus aureus
MIC: 512 µg/mL
--
MOL: C#CCn1cc(/C=C(/C(C)=O)n2cc([N+](=O)[O-])nc2C)c2ccccc21
MEASURED TARGET: Staphylococcus aureus
MIC: 128 µg/mL

// recorded MIC for CC(=O)/C(=C/c1cn(CC(=O)N(C(C)C)C(C)C)c2ccccc12)n1cc([N+](=O)[O-])nc1C : 512 µg/mL
